Answer each item with its documented inhibition.
Biological target: Nociceptin receptor (Homo sapiens)
Sequence (P41146 whole entry): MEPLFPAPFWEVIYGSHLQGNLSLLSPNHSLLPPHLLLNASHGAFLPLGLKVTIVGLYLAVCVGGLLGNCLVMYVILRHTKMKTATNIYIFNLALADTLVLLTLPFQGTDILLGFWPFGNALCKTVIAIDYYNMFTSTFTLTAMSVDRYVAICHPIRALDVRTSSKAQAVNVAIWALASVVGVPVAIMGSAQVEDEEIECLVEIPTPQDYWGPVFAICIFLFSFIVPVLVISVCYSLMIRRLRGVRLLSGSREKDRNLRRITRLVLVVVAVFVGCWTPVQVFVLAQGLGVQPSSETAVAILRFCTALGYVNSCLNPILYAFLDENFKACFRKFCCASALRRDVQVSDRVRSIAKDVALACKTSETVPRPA
Assay: Displacement of [125I][Tyr14]N/OFQ from ORL1 receptor transfected in CHO cells at 1 uM
Format: cell-based
Kindly provide the numeric value in % only, without the unit symbol.

Per the record, CC(C)CCc1noc(-c2cc3c(CCN(C)C)cccc3[nH]2)n1 has inhibition of 29

So for CN(C)CCc1cccc2[nH]c(-c3nc(CCC4CCOCC4)no3)cc12 , the logged inhibition turned out to be 11

inhibition measured on Clc1ccc(CCc2noc(-c3cc4c(CCN5CCOCC5)cccc4[nH]3)n2)cc1 = 15

In plain terms, CN1CCN(c2cc[nH]c3nc(-c4nc(CCc5ccc(Cl)cc5)no4)cc2-3)CC1 has a documented inhibition of 27

Per the records, this compound ( CN(C)CCc1cccc2cc(-c3nc(CCc4ccc(Cl)cc4)no3)[nH]c12 ) has inhibition equal to 18

Field inhibition (entry CN(C)CCc1cccc2[nH]c(-c3nc(CCc4ccncc4)no3)cc12 ) reads 12

// field: inhibition; key: CN(C)CCc1cccc2[nH]c(-c3nnn(CCc4ccc(Cl)cc4)n3)cc12 ; value = 46

So for CN(C)CCc1cccc2[nH]c(-c3nc(CCc4ccccn4)no3)cc12 , the logged inhibition turned out to be 11

Lab note: measured inhibition of CN(C)CCc1cccc2[nH]c(-c3ncc(CCc4ccc(Cl)cc4)o3)cc12 was 37

Quick note, inhibition for CN1CCCC1c1ccc2[nH]c(-c3nc(CCc4ccc(Cl)cc4)no3)cc2c1C1CCCN1C (stereo not given) landed at 31

What the record says about CCCc1noc(-c2cc3c(CCN(C)C)cccc3[nH]2)n1 : inhibition is 14

Lab book: inhibition of CN(C)CCc1cccc2[nH]c(-c3nc(CCc4cccnc4)no3)cc12 noted as 1.7

inhibition in this record for CN(C)CCc1cccc2[nH]c(-c3nc(CCC4CC4)no3)cc12 : 29

Reported inhibition of CN(C)CCc1cccc2[nH]c(-c3nc(CCc4ccccc4)no3)cc12 : 46

// sample COC(C)(C)CCc1noc(-c2cc3c(CCN(C)C)cccc3[nH]2)n1 , its inhibition was 4
